- ASSAYED_TARGET: FRAP1 (mTOR) recombinant protein (Homo sapiens)
- Sequence (P42345 1360-2549 limits assumed): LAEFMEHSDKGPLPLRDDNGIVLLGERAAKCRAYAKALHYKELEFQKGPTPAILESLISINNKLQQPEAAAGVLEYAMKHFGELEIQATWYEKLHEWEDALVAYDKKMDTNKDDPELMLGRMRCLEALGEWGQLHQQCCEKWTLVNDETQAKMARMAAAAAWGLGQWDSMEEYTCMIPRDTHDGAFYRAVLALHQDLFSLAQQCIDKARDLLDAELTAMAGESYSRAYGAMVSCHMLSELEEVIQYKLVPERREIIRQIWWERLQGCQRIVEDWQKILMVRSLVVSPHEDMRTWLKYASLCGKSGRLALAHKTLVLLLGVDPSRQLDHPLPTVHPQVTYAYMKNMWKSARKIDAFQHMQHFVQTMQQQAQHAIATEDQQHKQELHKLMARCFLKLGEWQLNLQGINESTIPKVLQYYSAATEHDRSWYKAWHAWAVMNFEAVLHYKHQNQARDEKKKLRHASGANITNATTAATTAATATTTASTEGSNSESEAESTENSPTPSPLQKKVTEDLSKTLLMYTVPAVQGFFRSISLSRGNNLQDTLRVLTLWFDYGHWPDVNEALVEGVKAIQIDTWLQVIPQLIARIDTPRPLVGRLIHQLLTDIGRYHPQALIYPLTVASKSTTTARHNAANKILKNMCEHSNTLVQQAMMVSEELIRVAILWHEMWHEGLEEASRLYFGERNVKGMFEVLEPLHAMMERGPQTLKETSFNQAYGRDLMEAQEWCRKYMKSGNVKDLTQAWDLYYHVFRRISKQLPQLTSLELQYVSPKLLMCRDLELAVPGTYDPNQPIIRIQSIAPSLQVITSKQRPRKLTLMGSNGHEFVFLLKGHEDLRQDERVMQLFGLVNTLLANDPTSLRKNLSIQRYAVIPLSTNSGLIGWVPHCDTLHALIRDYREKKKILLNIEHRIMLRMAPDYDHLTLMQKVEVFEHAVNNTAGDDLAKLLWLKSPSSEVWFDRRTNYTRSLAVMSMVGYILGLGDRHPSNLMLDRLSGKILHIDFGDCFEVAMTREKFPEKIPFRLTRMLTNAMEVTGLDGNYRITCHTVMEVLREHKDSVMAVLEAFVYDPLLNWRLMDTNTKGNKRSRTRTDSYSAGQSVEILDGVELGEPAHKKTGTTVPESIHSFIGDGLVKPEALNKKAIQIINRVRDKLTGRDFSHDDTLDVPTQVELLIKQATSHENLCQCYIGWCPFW
- TEST_SUMMARY: mTOR kinase inhibition assay (TR-FRET, GFP-4E-BP1)
- MEASUREMENT_PARAMETERS: enzyme
- Text: FRAP1 (mTOR) recombinant protein and GFP-4E-BP1 were purchased from Invitrogen (Carlsbad, CA, US). […] The release of product was detected using a BMG PHERAstar plate reader (BMG LABTECH, Ortenberg, Germany) and the Lantha Screen module (337 nm excitation wavelength) and measuring the ratio of fluorescence 520/490 nm (emission wavelengths). […]
PROPERTY_MEASURED: pIC50
Lab note: report pIC50 as minus log10 of the concentration in molar units, number only.

(Q) Would you mind telling me what pIC50 value was observed for CC(F)(F)CN1C(=O)[C@]2(C)COCCN2c2nc(-c3ccc(NC(=O)NC4CC4)cc3)ncc21 [compound 1] ?
(A) 7.92

###

In this section we review reported pIC50 values for a set of molecules.
- ASSAYED_TARGET: CYP2C8 (Homo sapiens)
- Sequence (P10632 1-490): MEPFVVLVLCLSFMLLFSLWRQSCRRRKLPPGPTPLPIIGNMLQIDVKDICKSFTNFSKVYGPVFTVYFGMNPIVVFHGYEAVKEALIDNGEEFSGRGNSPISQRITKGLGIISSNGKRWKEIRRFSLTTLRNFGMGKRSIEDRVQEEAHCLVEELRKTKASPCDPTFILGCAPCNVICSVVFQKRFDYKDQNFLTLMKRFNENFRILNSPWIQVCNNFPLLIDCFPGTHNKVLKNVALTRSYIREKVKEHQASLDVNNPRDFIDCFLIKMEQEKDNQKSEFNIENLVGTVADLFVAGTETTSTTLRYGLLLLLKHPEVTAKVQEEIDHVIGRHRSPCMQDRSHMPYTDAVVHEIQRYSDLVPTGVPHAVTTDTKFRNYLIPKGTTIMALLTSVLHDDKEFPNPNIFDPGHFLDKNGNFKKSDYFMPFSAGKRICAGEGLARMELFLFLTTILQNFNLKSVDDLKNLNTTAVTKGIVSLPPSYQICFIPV
- TEST_SUMMARY: CYP inhibition, 2C8
- Type: in vitro ADME
- MEASUREMENT_PARAMETERS: most potently inhibited CYP isoform
Lab note: report pIC50 as minus log10 of the concentration in molar units, number only.

Cc1cccc2c(-c3ncc4c(n3)N3CCOC[C@@]3(C)C(=O)N4C3(CCO)CC3)c[nH]c12 [15e] = 5.89
Cc1cccc2c(-c3ncc4c(n3)N3CCOC[C@@]3(C)C(=O)N4[C@H]3CC[C@@H](O)CC3)c[nH]c12 [15d] = 6.10
Cc1ccc(-c2ncc3c(n2)N2CCOC[C@@]2(C)C(=O)N3[C@H]2CC[C@@H](O)CC2)c2cc[nH]c12 [15c] = 5.52

(Q) Write down the reported pIC50 of C[C@@]12COCCN1c1nc(-c3cccc4[nH]ccc34)ncc1N([C@H]1CC[C@H](O)CC1)C2=O [14c] , test system: CYP2C8 (Homo sapiens).
(A) 4.68

(Q) Write down the reported pIC50 of CC(F)(F)CN1C(=O)[C@]2(C)COCCN2c2nc(-c3ccc(NC(=O)NC4CC4)cc3)ncc21 , test system: CYP2C8 (Homo sapiens).
(A) 5.15

(Q) Write down the reported pIC50 of Cc1cccc2c(-c3ncc4c(n3)N3CCOC[C@@]3(C)C(=O)N4C3CCOCC3)c[nH]c12 , test system: CYP2C8 (Homo sapiens).
(A) 6.00

(Q) Write down the reported pIC50 of Cc1cccc2c(-c3ncc4c(n3)N3CCOC[C@@]3(C)C(=O)N4[C@H]3CC[C@H](O)CC3)c[nH]c12 [15b] , test system: CYP2C8 (Homo sapiens).
(A) 5.52

(Q) Write down the reported pIC50 of C[C@@]12COCCN1c1nc(-c3cccc4[nH]ccc34)ncc1N([C@H]1CC[C@@H](O)CC1)C2=O [14b] , test system: CYP2C8 (Homo sapiens).
(A) 5.40

###

In this section we review reported Cl values for a set of molecules.
- TEST_SUMMARY: Rat PK (iv and po)
- Format: in vivo
- MEASUREMENT_PARAMETERS: iv 1 mpk
Supply the numeric figure in mL min^–1 kg^–1, leaving out any unit text.

For orientation, consider the following solved cases.
C[C@@]12COCCN1c1nc(-c3cccc4[nH]ccc34)ncc1N([C@H]1CC[C@H](O)CC1)C2=O [14c] = 7.0
C[C@@]12COCCN1c1nc(-c3cccc4[nH]ccc34)ncc1N([C@H]1CC[C@@H](O)CC1)C2=O [14b] = 11
CC(F)(F)CN1C(=O)[C@]2(C)COCCN2c2nc(-c3ccc(NC(=O)NC4CC4)cc3)ncc21 = 6.9
Cc1ccc(-c2ncc3c(n2)N2CCOC[C@@]2(C)C(=O)N3[C@H]2CC[C@H](O)CC2)c2cc[nH]c12 [15a] = 10

(Q) Would you mind telling me what Cl value was observed for C[C@@]12COCCN1c1nc(-c3cccc4[nH]ccc34)ncc1N(C1CCOCC1)C2=O ?
(A) 15

###

- TEST_SUMMARY: Rat PK (iv and po)
- Type: in vivo
- MEASUREMENT_PARAMETERS: estimated from %F, Cl and Qh = 70 mL min^–1 kg^–1
In this section we review reported frac. abs. values for a set of molecules.
Supply the numeric figure in %, leaving out any unit text.

For orientation, consider the following solved cases.
Cc1ccc(-c2ncc3c(n2)N2CCOC[C@@]2(C)C(=O)N3[C@H]2CC[C@H](O)CC2)c2cc[nH]c12 [15a] = 41
CC(F)(F)CN1C(=O)[C@]2(C)COCCN2c2nc(-c3ccc(NC(=O)NC4CC4)cc3)ncc21 = 22
C[C@@]12COCCN1c1nc(-c3cccc4[nH]ccc34)ncc1N([C@H]1CC[C@@H](O)CC1)C2=O [14b] = 100

(Q) Would you mind telling me what frac. abs. value was observed for C[C@@]12COCCN1c1nc(-c3cccc4[nH]ccc34)ncc1N([C@H]1CC[C@H](O)CC1)C2=O [14c] ?
(A) 100

###

- TEST_SUMMARY: Human liver microsome intrinsic clearance
- Assay type: in vitro ADME
- MEASUREMENT_PARAMETERS: apparent intrinsic clearance, scaled
PROPERTY_MEASURED: HLM Clint (mL min^–1 kg^–1)
Supply the numeric figure in mL min^–1 kg^–1, leaving out any unit text.

(Q) Would you mind telling me what HLM Clint value was observed for C[C@@]12COCCN1c1nc(-c3cnc4[nH]ccc4c3)ncc1N(C1(CCO)CC1)C2=O [13d] ?
(A) 11

###

- TEST_SUMMARY: Rat PK (iv and po)
- Type: in vivo
- MEASUREMENT_PARAMETERS: po 4 mpk in 0.5% methylcellulose
PROPERTY_MEASURED: Cmax (nM)
Supply the numeric figure in nM, leaving out any unit text.

Cc1ccc(-c2ncc3c(n2)N2CCOC[C@@]2(C)C(=O)N3[C@H]2CC[C@H](O)CC2)c2cc[nH]c12 [15a] = 570

(Q) Would you mind telling me what Cmax value was observed for C[C@@]12COCCN1c1nc(-c3cccc4[nH]ccc34)ncc1N([C@H]1CC[C@@H](O)CC1)C2=O [14b] ?
(A) 1400

(Q) Would you mind telling me what Cmax value was observed for CC(F)(F)CN1C(=O)[C@]2(C)COCCN2c2nc(-c3ccc(NC(=O)NC4CC4)cc3)ncc21 ?
(A) 320

(Q) Would you mind telling me what Cmax value was observed for C[C@@]12COCCN1c1nc(-c3cccc4[nH]ccc34)ncc1N([C@H]1CC[C@H](O)CC1)C2=O [14c] ?
(A) 1600

###

- TEST_SUMMARY: Rat PK (iv and po)
- Format: in vivo
- MEASUREMENT_PARAMETERS: iv 1 mpk
In this section we review reported Vd values for a set of compounds.
Number first, unit second.

For orientation, consider the following solved cases.
CC(F)(F)CN1C(=O)[C@]2(C)COCCN2c2nc(-c3ccc(NC(=O)NC4CC4)cc3)ncc21 [compound 1] = 0.95 L/kg
Cc1ccc(-c2ncc3c(n2)N2CCOC[C@@]2(C)C(=O)N3[C@H]2CC[C@H](O)CC2)c2cc[nH]c12 [15a] = 1.6 L/kg
C[C@@]12COCCN1c1nc(-c3cccc4[nH]ccc34)ncc1N([C@H]1CC[C@H](O)CC1)C2=O [14c] = 1.3 L/kg

(Q) Would you mind telling me what Vd value was observed for C[C@@]12COCCN1c1nc(-c3cccc4[nH]ccc34)ncc1N([C@H]1CC[C@@H](O)CC1)C2=O [14b] ?
(A) 3.9 L/kg

###

- TEST_SUMMARY: Human liver microsome intrinsic clearance
- Assay type: in vitro ADME
- MEASUREMENT_PARAMETERS: apparent intrinsic clearance, scaled
PROPERTY_MEASURED: HLM Clint (mL min^–1 kg^–1)
Supply the numeric figure in mL min^–1 kg^–1, leaving out any unit text.

(Q) Would you mind telling me what HLM Clint value was observed for C[C@@]12COCCN1c1nc(-c3cccc4[nH]ccc34)ncc1N([C@H]1CC[C@@H](O)CC1)C2=O [14b] ?
(A) 6

(Q) Would you mind telling me what HLM Clint value was observed for CC(=O)N1CCC(N2C(=O)[C@]3(C)COCCN3c3nc(-c4cccc5[nH]ccc45)ncc32)CC1 [14a] ?
(A) 6

(Q) Would you mind telling me what HLM Clint value was observed for C[C@@]12COCCN1c1nc(-c3cnc4[nH]ccc4c3)ncc1N(C1CCOC1)C2=O (stereo partly drawn) [13a] ?
(A) 12
